Literature roundup of the protein given by its sequence data, read-out Ki.
Target protein (sequence): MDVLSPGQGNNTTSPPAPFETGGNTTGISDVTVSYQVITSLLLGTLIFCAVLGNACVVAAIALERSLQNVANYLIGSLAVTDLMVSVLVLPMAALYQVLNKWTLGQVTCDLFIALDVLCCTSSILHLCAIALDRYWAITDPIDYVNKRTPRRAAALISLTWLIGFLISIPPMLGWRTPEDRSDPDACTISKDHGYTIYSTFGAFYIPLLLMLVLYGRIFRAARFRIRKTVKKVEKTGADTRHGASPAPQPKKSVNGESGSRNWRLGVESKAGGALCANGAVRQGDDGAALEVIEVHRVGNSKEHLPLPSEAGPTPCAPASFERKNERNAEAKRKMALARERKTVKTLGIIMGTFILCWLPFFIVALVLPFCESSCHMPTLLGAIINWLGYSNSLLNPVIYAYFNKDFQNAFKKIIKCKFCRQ
measurement-name: Ki

compound: O=C(CCN1CCN(c2ncccn2)CC1)c1ccccc1
measurement-name: Ki
assay-result: 120 nM
//
compound: O=c1[nH]c2cccc(N3CCN(Cc4cccc(-c5cccs5)c4)CC3)c2o1
measurement-name: Ki
assay-result: 32 nM
//
compound: COc1ccc(Cl)cc1N1CCN(CCNc2cc(-c3ccccc3)nn(C)c2=O)CC1
measurement-name: Ki
assay-result: 322 nM
//
compound: COc1ccc(Br)c(CC2CCN(CCc3cccc4c3OCCO4)CC2)c1
measurement-name: Ki
assay-result: 2.12 nM
//
compound: O=C(N[C@H]1CCN(Cc2ccc(OC3CCNCC3)c(Br)c2)C1)c1ccc(Cl)c(Cl)c1
measurement-name: Ki
assay-result: 38 nM
//
compound: O[C@@H]1[C@@H](CN2CCC(Cc3ccccc3)CC2)CCC1(c1ccccc1)c1ccccc1 (relative stereo)
measurement-name: Ki
assay-result: 50.1 nM
//
compound: CN(C)CCN(Cc1ccc(-c2ccc(CNCCc3ccccc3)cc2)cc1)C(=O)/C=C/c1ccccc1
measurement-name: Ki
assay-result: 794 nM
//
compound: CC1(c2cccc3ccccc23)NC(=O)N(CC(O)CN2CCN(C(c3ccccc3)c3ccccc3)CC2)C1=O (centres undefined)
measurement-name: Ki
assay-result: 413000 nM
//
compound: CCN(CC)c1ccc2cc(/C=C/C3=[N+](CCCCCC(=O)Oc4cccc(CCN5CCN(c6ccccc6OC)CC5)c4)c4ccccc4C3(C)C)c(=O)oc2c1
measurement-name: Ki
assay-result: 35 nM
